tgt: Pseudomonas aeruginosa LpxC enzyme (Pseudomonas aeruginosa (strain ATCC 15692 / DSM 22644 / CIP 104116 / JCM 14847 / LMG 12228 / 1C / PRS 101 / PAO1))
assay-protocol: IC50 Assay, LpxC Enzyme from P. aeruginosa (PA LpxC Enzyme IC50)
Format: biochemical
experimental-parameters: P. aeruginosa LpxC enzyme; read-out: PA LpxC enzyeme IC50
pIC50: −log10 of the molar value.
Mark 1 for reported pIC50 of 9 or greater; mark 0 for anything smaller.

INPUT: Quick check: does C[C@@](CCc1ccc(-c2ccc(C(=O)N3CCC[C@@H]3CO)cc2)cc1)(C(=O)NO)S(C)(=O)=O have pIC50 greater than or equal to 9?
OUTPUT: 0

INPUT: I'd appreciate it if you could say whether C[C@@](CCc1ccc(-c2ccc(CC(=O)N3CCC(O)CC3)cc2)cc1)(C(=O)NO)S(C)(=O)=O has pIC50 at least equal to 9.
OUTPUT: 0

INPUT: Does the compound C[C@@](CCc1ccc(-c2ccc(C(=O)N3CCC(O)CC3)cc2)cc1)(C(=O)NO)S(C)(=O)=O have recorded pIC50 that is 9 or more?
OUTPUT: 0

INPUT: # bool: pIC50 of Cc1cc(CCC(C)(C(=O)NO)S(C)(=O)=O)ccc1-c1ccc(C#N)cc1 (stereo not shown) >= 9
OUTPUT: 1

INPUT: Threshold query (pIC50 >= 9) on CC(CCc1ccc(C2=CCCCC2)cc1)(C(=O)NO)S(C)(=O)=O (stereo not shown)
OUTPUT: 1

INPUT: Given C[C@@](CCc1ccc(-c2cnc3ccccc3c2)cc1)(C(=O)NO)S(C)(=O)=O , state whether its pIC50 is at least 9.
OUTPUT: 1

INPUT: Has CC(CCc1ccc(-c2ccc(OCCCCO)cc2)cc1)(C(=O)NO)S(C)(=O)=O (stereo not shown) a recorded pIC50 greater than or equal to 9?
OUTPUT: 1

INPUT: pIC50 >= 9 for C[C@@](CCc1ccc(-c2cnc3cc[nH]c3c2)cc1)(C(=O)NO)S(C)(=O)=O ?
OUTPUT: 0

INPUT: Quick check, pIC50 >= 9? CC(O)C(=O)c1ccc(-c2ccc(CCC(C)(C(=O)NO)S(C)(=O)=O)cc2)cc1 (stereo not shown)
OUTPUT: 1

INPUT: Please tell me: is the compound Cc1cc(-c2ccc(F)cc2)ccc1CCC(C)(C(=O)NO)S(C)(=O)=O (stereo not shown) at or over 9 in terms of pIC50?
OUTPUT: 1

INPUT: Quick check, pIC50 >= 9? CC(CCc1ccc(C2=CCCC2)cc1)(C(=O)NO)S(C)(=O)=O (stereo not shown)
OUTPUT: 0

INPUT: Tell me whether pIC50 is at least 9 here: CC(=O)c1ccc(-c2ccc(CC[C@](C)(C(=O)NO)S(C)(=O)=O)cc2)cn1
OUTPUT: 1

INPUT: Form field: pIC50 at least 9? Entry: CSc1cccc(-c2ccc(CCC(C)(C(=O)NO)S(C)(=O)=O)cc2)c1 (stereo not shown)
OUTPUT: 1

INPUT: Record CC(CCc1ccc(-c2cccc(Cl)c2Cl)cc1)(C(=O)NO)S(C)(=O)=O (stereo not shown) ; criterion: pIC50 no lower than 9. Met?
OUTPUT: 1

INPUT: Has CC(CCc1ccc(OCc2ccccc2)cc1)(C(=O)NO)S(C)(=O)=O (stereo not shown) a recorded pIC50 greater than or equal to 9?
OUTPUT: 1

INPUT: For this compound, is measured pIC50 9 or higher? CC(CCc1ccc(-c2ccc(F)cc2)c(F)c1)(C(=O)NO)S(C)(=O)=O (stereo not shown)
OUTPUT: 1

INPUT: Exam item: decide whether the reported pIC50 for CC(=O)c1ccc(-c2ccc(CCC(C)(C(=O)NO)S(C)(=O)=O)c(F)c2)cn1 (stereo not shown) is at least 9.
OUTPUT: 1

INPUT: hey, is pIC50 for this one >= 9? Cc1cc(CCC(C)(C(=O)NO)S(C)(=O)=O)ccc1-c1ccccc1 (stereo not shown)
OUTPUT: 0
